- target system: 5-lipoxygenase (Cavia porcellus)
- Construct: The cytosol fraction of peritoneal exudate cells from male Hartley guinea pigs (400-700 g) was used as 5-lipoxygenase; from tissue; host or cells: cytosol fraction of peritoneal exudate cells (leukocytes) of male Hartley guinea pigs
- Sequence (A0A286X958 1-674): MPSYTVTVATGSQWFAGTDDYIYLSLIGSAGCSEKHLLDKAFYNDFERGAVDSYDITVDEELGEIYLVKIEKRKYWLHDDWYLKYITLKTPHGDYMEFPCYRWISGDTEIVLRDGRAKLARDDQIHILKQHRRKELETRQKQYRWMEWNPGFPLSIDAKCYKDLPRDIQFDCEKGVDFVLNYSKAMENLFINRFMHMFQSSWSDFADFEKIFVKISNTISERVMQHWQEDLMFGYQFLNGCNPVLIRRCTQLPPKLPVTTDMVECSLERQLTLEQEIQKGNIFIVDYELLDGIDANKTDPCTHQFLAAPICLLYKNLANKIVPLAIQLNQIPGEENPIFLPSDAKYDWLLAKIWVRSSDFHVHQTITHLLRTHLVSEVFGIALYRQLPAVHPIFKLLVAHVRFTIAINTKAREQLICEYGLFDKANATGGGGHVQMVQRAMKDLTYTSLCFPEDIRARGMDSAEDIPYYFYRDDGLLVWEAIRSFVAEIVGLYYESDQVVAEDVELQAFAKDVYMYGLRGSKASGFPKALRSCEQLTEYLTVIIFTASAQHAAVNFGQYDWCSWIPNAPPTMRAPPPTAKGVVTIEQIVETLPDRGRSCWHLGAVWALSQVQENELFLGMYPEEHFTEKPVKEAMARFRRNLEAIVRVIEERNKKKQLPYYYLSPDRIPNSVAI
- protocol summary: Inhibitory effect on 5-lipoxygenase activity in guinea pig leukocytes
- Format: biochemical, guinea pig (male Hartley)
- condition description: 10^-5 M; read-out: 5-Lipoxygenase inhibit. activity, Inhibition
Note to self: values exactly at 50% are yes. So inhibition at 10 µM at or above 50% is yes, below is no.

>>> classification("Cc1ccc(C=CC(=O)NCCCCN2CCN(C(c3ccccc3)c3ccccc3)CC2)cn1 [Example 2]")
"no"
>>> classification("O=C(C=CC=Cc1cccnc1)NCCCN1CCN(C(c2ccccc2)c2ccccc2)CC1 [Example 84]")
"yes"
>>> classification("O=C(C=Cc1ccc(O)nc1)NCCCCN1CCN(C(c2ccccc2)c2ccccc2)CC1 [Example 44]")
"no"
>>> classification("COc1ccc(C=CC(=O)NCCCCN2CCN(C(c3ccccc3)c3ccccc3)CC2)cn1 [Example 25]")
"yes"
>>> classification("O=C(C=Cc1ccccn1)NCCCCN1CCN(C(c2ccccc2)c2ccccc2)CC1 [Example 11]")
"yes"

Kindly consider the entry below.
q: Test whether the compound C/C(=C\c1cccnc1)C(=O)NCCCCN1CCN(C(c2ccccc2)c2ccccc2)CC1 [Example 76] records inhibition at 10 µM of 50% or higher.
a: no

---

# maps each entry to its inhibition at 10 µM
- target system: 5-lipoxygenase (Cavia porcellus)
- Construct: The cytosol fraction of peritoneal exudate cells from male Hartley guinea pigs (400-700 g) was used as 5-lipoxygenase; from tissue; host or cells: cytosol fraction of peritoneal exudate cells (leukocytes) of male Hartley guinea pigs
- protocol summary: Inhibitory effect on 5-lipoxygenase activity in guinea pig leukocytes
- Format: biochemical, guinea pig (male Hartley)
- condition description: 10^-5 M; read-out: 5-Lipoxygenase inhibit. activity, Inhibition
Just the number please, in %, no unit attached.

Lab note: measured inhibition at 10 µM of O=C(C=Cc1ccc(Cl)nc1)NCCCCN1CCN(C(c2ccccc2)c2ccccc2)CC1 [Example 37] was 54.6

Lab note: measured inhibition at 10 µM of Cc1ncc(C=CC(=O)NCCCCN2CCN(C(c3ccccc3)c3ccccc3)CC2)c(CO)c1O [Example 38] was 72.7

Lab note: measured inhibition at 10 µM of Cc1ccc(C=CC(=O)NCCCCN2CCN(C(c3ccccc3)c3ccccc3)CC2)c(C)n1 [Example 50] was 61.2

Lab note: measured inhibition at 10 µM of Cc1ccc(O)c(C=CC(=O)NCCCCN2CCN(C(c3ccccc3)c3ccccc3)CC2)n1 [Example 20] was 68.6

---

- Tested on: human basophils
- protocol summary: Inhibitory effect on histamine release induced by anti-human IgE antibody from healthy human basophils
- Type: cell-based
- condition description: anti-human IgE antibody; human basophils; read-out: Histamine release inhibit. IC50
- Description: (3) Inhibitory effect on histamine release induced by anti-human IgE antibody from healthy human basophils: Basophils from nonallergic volunteers were collected by the method of Levy and Osler [cf. […] The supernatant fluids and the cells were analysed separately for histamine by a modification of the spectrophotofluorometric technique of Shore et al. [cf. […] Histamine release rate was calculated according to the following equation. […]
assay readout: IC50 (µM)
Just the number please, in µM, no unit attached.

Recorded IC50 for Cc1ccc(C=CC(=O)NCCCCN2CCN(C(c3ccccc3)c3ccccc3)CC2)cn1 on human basophils was 34
